- Read-out: Vascular cell adhesion molecule 1 (VCAM1), VCAM1 (gene 7412)
- assay procedure: BSK_LPS_VCAM1: BioMAP Diversity Plus: LPS Assay for Vascular cell adhesion molecule 1 (VCAM1) Biomarker Activity (AID 2283086)
- conditions used: primary human HUVEC with PBMC; actives raise or lower the signal
The source made the active and inactive calls. Rule for the calls: active = hit-call score of the fitted dose curve at least 0.9, where 1 is the maximum; inactive = score below 0.9.
Hello, when you answer, please use one of the following outcomes: class 1 (active), class 0 (inactive)

Query: Record lookup: outcome of this test for `O=[N+]([O-])c1ccc2c3c(cccc13)CC2` ?
Reply: class 0

---

- assay procedure: BSK_CASM3C_Proliferation: Cell Proliferation Assessment in the BioMAP Diversity Plus: CASM3C Assay (AID 2283047);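 note: sulforhodamine B total protein stain as relative cell number at 560 nm; sub-confluent cells exposed 48 h before staining; fitted both ways against DMSO so gain or loss of cell number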
- conditions used: primary human coronary artery smooth muscle cells
Activity calls are given as the source filed them. How the source made its calls: active means hit-call score of the fitted dose curve at least 0.9, where 1 is the maximum; inactive means score below 0.9.
Return exactly one item of active, inactive

>>> df
                 structure_smiles     class
0      CCNc1nc(NC(C)(C)C)nc(SC)n1  inactive
1             CCCCCCCCc1ccc(O)cc1    active
2  COP(=S)(OC)Oc1cc(Cl)c(Cl)cc1Cl    active
3  O=C(O)CCC(F)(C(F)(F)F)C(F)(F)F  inactive

// switching to the query molecule
Query: Look up the recorded call for `O=C(O)C(F)(F)C(F)(F)C(F)(F)C(F)(F)C(F)(F)C(F)(F)C(F)(F)C(F)(F)C(F)(F)C(F)(F)F` in this test.
Reply: inactive
